tested on: HER3ss-Gluc; assay: HER3ss assay; type: cell-based; settings: HEK-293T T-rex cells, transient transfection, doxycycline, 24 h; read-out: HER3 ss IC50
pIC50: −log10 of the molar value. Numbered stars: 1 amine (or outer) side, 2 acyl side, 3 side chain; on linkers, the order of the positions; unused ones are H or OH. Square brackets hold non-standard residues; d marks the D form. Peptide text beside a SMILES is read from it. NMeAla(5-Cl-benzothien-3-yl) = CN[C@@H](Cc1csc2ccc(Cl)cc12)C(=O)O; Ala(1-cyclohexenyl) = N[C@@H](CC1=CCCCC1)C(=O)O; Butanoyl(2R-oxy,4-CN) = N#CCC[C@@H](O)C(=O)O; Abu(4,4,4-F3) = N[C@@H](CC(F)(F)F)C(=O)O; X12 = O=C([C@H](CC1=CCCC1)N[*:1])[*:2]; NMeL = CN[C@@H](CC(C)C)C(=O)O; NMeA = CN[C@@H](C)C(=O)O
pIC50 below 7 gives Criterion not met; pIC50 at or above it gives Criterion met.

- Compound: "CC(C)C[C@@H]1NC(=O)[C@H](CC(C)C)N(C)C(=O)[C@H](CC(F)(F)F)NC(=O)[C@@H](CCC#N)OC(=O)[C@H](C)N(C)C(=O)[C@H](CC2=CCCC2)NC(=O)[C@H](Cc2csc3ccc(Cl)cc23)N(C)C1=O [C-89] (cyclo(L[NMeAla(5-Cl-benzothien-3-yl)][X12][NMeA][Butanoyl(2R-oxy,4-CN)][Abu(4,4,4-F3)][NMeL]))"
  Group Label: "Criterion met"
- Compound: "CC(C)C[C@@H]1NC(=O)[C@H](Cc2c[nH]c3ccccc23)N(C)C(=O)[C@H](CC(C)C)NC(=O)[C@H](CC(C)C)N(C)C(=O)[C@H](CC(C)C)NC(=O)[C@@H](CCC#N)OC(=O)[C@H](C)N(C)C1=O [C-71] (HELM PEPTIDE1{L.[meA].[N#CCC[C@@H](O[*:1])C(=O)[*:2]].L.[meL].L.[meW]}$PEPTIDE1,PEPTIDE1,1:R1-7:R2$$$V2.0)"
  Group Label: "Criterion not met"
- Compound: "CC(C)C[C@@H]1NC(=O)[C@H](Cc2csc3ccc(Cl)cc23)N(C)C(=O)[C@H](CC(F)(F)F)NC(=O)[C@H](CC(C)C)N(C)C(=O)[C@H](CC(F)(F)F)NC(=O)[C@@H](CCC#N)OC(=O)[C@H](C)N(C)C1=O [C-90] (cyclo(L[NMeA][Butanoyl(2R-oxy,4-CN)][Abu(4,4,4-F3)][NMeL][Abu(4,4,4-F3)][NMeAla(5-Cl-benzothien-3-yl)]))"
  Group Label: "Criterion met"
- Compound: "CC(C)C[C@@H]1NC(=O)[C@H](Cc2csc3ccc(Cl)cc23)N(C)C(=O)[C@H](CC2=CCCCC2)NC(=O)[C@H](CC(C)C)N(C)C(=O)[C@H](CC(F)(F)F)NC(=O)[C@@H](CCC#N)OC(=O)[C@H](C)N(C)C1=O [C-97] (cyclo(L[NMeA][Butanoyl(2R-oxy,4-CN)][Abu(4,4,4-F3)][NMeL][Ala(1-cyclohexenyl)][NMeAla(5-Cl-benzothien-3-yl)]))"
  Group Label: "Criterion met"

Provenance of the data: patent US11339193B2
